Origin of values: ChEMBL document CHEMBL5252513

# target.desc: Bromodomain-containing protein 9 (Homo sapiens, UniProt Q9H8M2)
# Sequence (Q9H8M2 whole entry): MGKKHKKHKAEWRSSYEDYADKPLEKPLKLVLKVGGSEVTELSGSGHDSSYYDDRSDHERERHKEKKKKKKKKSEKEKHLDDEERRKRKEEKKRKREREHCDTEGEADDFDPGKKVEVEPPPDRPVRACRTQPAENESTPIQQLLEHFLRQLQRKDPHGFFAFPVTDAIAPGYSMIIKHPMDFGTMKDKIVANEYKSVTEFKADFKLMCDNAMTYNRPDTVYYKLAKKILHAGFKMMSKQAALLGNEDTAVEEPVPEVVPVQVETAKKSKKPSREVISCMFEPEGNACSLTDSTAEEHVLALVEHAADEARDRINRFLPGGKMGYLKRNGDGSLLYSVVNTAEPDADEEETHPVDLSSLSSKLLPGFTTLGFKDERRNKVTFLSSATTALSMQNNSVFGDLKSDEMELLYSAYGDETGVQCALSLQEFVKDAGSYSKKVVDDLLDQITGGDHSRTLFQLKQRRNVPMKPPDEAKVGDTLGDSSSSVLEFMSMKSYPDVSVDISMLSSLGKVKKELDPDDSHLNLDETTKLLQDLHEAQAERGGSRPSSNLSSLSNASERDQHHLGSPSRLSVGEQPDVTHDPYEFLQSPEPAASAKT
# experiment.notes: Binding affinity to BRD9 bromodomain (unknown origin) incubated for 60 mins by TR-FRET assay
readout.name: IC50

// sample Cc1noc2c1-c1ccccc1C(c1ccc(Cl)cc1)=N[C@H]2CC(N)=O [PELABRESIB] , its IC50 was > 80 µM

###

# target.desc: ATPase family AAA domain-containing protein 2 (Homo sapiens)
# Sequence (Q6PL18 whole entry): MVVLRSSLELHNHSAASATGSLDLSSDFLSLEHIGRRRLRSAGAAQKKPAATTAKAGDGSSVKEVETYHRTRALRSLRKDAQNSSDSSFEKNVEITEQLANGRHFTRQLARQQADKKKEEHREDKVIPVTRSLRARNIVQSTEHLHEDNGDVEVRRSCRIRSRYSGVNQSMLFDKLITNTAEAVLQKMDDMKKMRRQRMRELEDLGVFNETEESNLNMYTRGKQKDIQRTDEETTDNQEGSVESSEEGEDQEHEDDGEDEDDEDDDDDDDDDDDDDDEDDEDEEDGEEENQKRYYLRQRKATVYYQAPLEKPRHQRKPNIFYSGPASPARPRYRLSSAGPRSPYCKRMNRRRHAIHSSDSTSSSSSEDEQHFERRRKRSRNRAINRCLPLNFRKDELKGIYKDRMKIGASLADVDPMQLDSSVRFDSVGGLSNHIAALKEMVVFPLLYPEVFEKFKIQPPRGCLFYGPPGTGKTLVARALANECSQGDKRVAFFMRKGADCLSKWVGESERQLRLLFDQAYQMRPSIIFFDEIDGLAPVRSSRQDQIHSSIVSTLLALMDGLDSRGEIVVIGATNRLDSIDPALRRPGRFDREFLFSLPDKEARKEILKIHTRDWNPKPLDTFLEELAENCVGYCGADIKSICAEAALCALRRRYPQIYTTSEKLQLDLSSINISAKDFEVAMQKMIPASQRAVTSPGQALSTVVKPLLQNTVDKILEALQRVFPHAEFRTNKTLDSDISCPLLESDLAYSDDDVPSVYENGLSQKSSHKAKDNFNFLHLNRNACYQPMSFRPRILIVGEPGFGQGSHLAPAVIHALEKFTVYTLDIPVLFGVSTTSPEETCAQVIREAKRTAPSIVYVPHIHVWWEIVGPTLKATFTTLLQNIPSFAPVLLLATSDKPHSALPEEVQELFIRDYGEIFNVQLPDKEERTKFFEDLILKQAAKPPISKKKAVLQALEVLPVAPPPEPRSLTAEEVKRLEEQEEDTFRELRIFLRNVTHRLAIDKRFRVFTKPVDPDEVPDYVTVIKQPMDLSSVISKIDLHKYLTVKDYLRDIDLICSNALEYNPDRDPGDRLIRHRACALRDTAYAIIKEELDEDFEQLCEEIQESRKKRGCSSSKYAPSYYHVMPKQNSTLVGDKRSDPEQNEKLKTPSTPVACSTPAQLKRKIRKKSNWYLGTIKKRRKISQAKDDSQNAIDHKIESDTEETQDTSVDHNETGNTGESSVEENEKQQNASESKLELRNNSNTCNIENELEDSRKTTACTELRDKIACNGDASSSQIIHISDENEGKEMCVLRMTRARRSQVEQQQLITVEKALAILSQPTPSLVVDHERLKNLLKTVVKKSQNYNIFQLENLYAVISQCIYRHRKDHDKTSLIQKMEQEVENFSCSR
# experiment.notes: Displacement of biotinylated JQ1 from ATAD2 bromodomain (unknown origin) incubated for 20 mins by AlphaLISA assay
pIC50: −log10 of the molar value.
readout.name: pIC50

Lab book: pIC50 of Cc1noc2c1-c1ccccc1C(c1ccc(Cl)cc1)=N[C@H]2CC(N)=O [PELABRESIB] noted as < 4.10
